B1: INTS4 (parent)
chain: AKQIMEETYKMEFMYSGVENKQVV

Variants of: B1
Assay: protein stability index of a GFP-peptide fusion (GPS, HEK-293T) (PSI 1-6); higher = more stable;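 note: lentivirally expressed fusions sorted by FACS into six bins by GFP to DsRed ratio, PSI derived from sequencing read proportions per bin multiplied by bin number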
Settings: c terminus: a fixed tail appended

| alteration | protein stability index |
| --- | --- |
| M14I | 1.54 |
| T8E | 2.69 |
| V24Y | 2.01 |
| A1N | 2.1 |
| G17Y | 1.84 |
| E6A | 2.25 |
| V18A | 2.04 |
| E7G | 2.1 |
| N20Q | 2.84 |
| K21P | 2.99 |
| K2D | 3.15 |
| G17E | 1.55 |
| M11Q | 3.2 |
| E19N | 1.91 |
| E6G | 3.01 |
| Q22N | 1.31 |
| M14Y | 1.25 |
| Q3N | 1.68 |
| E19I | 1.54 |
| Q22W | 1.02 |
| K10G | 2.48 |
| Y9L | 2.67 |
| K21C | 1.92 |
| G17M | 1.65 |
| M5W | 2.11 |
| V23A | 1.8 |
| F13Q | 3.12 |
| M11T | 2.9 |
| M11H | 3.56 |
| N20W | 3.06 |
| G17H | 2.5 |
| Q3F | 1.97 |
| E19Y | 1.09 |
| E7T | 1.96 |
